system: MCF7; assay: Antiproliferative activity against human MCF7 cells by clonogenicity assay; assay type: functional, cell-based
READOUT: IC50 (µM)

INSERT INTO assay_data (test_smiles, readout, unit_descriptor, value) VALUES
  ('COc1c(O)cc2c3c(cc4ccc(O)cc4c13)NC2=O', 'IC50', 'µM', 3),
  ('COc1ccc2nc3[nH]nc(C)c3c(OC)c2c1', 'IC50', 'µM', 3.5);

---

Reported pIC50 values are given for each entry in this list.
assay: Inhibition of MAPK
pIC50: −log10 of the molar value.
READOUT: pIC50

INSERT INTO measurements (test_smiles, readout, value) VALUES
  ('O=C1Nc2cc3c(O)cccc3c3c4c(cc1c23)OCO4', 'pIC50', 4.45),
  ('COc1ccc2nc3[nH]nc(C)c3c(OC)c2c1', 'pIC50', '< 4.30'),
  ('COc1c(O)cc2c3c(cc4ccc(O)cc4c13)NC2=O', 'pIC50', '< 4.30');

---

target: Cyclin-dependent kinase 2 (Homo sapiens, UniProt P24941); assay: Inhibition of CDK2 at 50 uM
Calls of active or inactive are those of the source. The calls are words filed in the database; no cut-off is given here.
READOUT: Activity

INSERT INTO results (compound, value) VALUES
  ('O=C(O)c1cc2c(c3c1c([N+](=O)[O-])cc1ccccc13)OCO2 [ARISTOLOCHIC ACID II]', 'inactive'),
  ('COc1cc(O)cc2c1cc1c3c(cc4c(c32)OCO4)C(=O)N1', 'inactive'),
  ('O=C(O)c1cc(O)c(O)c2c1c([N+](=O)[O-])c(Cl)c1ccccc12', 'inactive'),
  ('COc1cccc2c1c(Cl)c([N+](=O)[O-])c1c(C(=O)O)cc(O)c(O)c12', 'inactive'),
  ('COc1cc(OC)c2cc([N+](=O)[O-])c3c(C(=O)O)cc4c(c3c2c1)OCO4 [ARISTOLOCHIC ACID IV]', 'inactive'),
  ('COc1cccc2c1cc([N+](=O)[O-])c1c(C(=O)O)cc3c(c12)OCO3 [ARISTOLOCHIC ACID]', 'inactive'),
  ('O=C1Nc2cc3ccccc3c3c4c(cc1c23)OCO4 [ARISTOLACTAM II]', 'inactive'),
  ('O=C1Nc2cc3c(O)cccc3c3c(O)c(O)cc1c23', 'inactive'),
  ('COc1c(O)ccc2c1cc([N+](=O)[O-])c1c(C(=O)O)cc3c(c12)OCO3 [7-HYDROXY ARISTOLOCHIC A]', 'inactive');

---

// endpoint IC50 / system Cyclin-dependent kinase 2 (Homo sapiens, UniProt P24941)
READOUT: IC50

INSERT INTO assay_data (compound, value) VALUES
  ('COc1cccc2c1cc1c3c(cc4c(c32)OCO4)C(=O)N1C', '> 35 µM'),
  ('COc1ccc2c(c1OC)CC1c3c(cc4c(c3-2)OCO4)CCN1C (configuration not stated) [CREBANINE]', '> 50 µM'),
  ('O=C1Nc2cc3c(O)cc(O)cc3c3c4c(cc1c23)OCO4', '> 50 µM'),
  ('CN1CCc2cc3c(c4c2[C@H]1Cc1ccccc1-4)OCO3 [ROEMERINE HBR]', '> 50 µM'),
  ('COc1cccc2c1C[C@@H]1c3c(cc4c(c3-2)OCO4)CCN1C [STEPHANINE]', '> 50 µM'),
  ('COc1ccc2c(c1OC)CN1CCc3cc4c(cc3C1C2)OCO4 (configuration not stated) [TETRAHYDROBERBERINE]', '> 50 µM'),
  ('COc1cc(O)cc2c1cc([N+](=O)[O-])c1c(C(=O)O)cc3c(c12)OCO3 [ARISTOLOCHIC D]', '25 µM'),
  ('O=C1Nc2cc3c(O)c(O)ccc3c3c4c(cc1c23)OCO4', '> 30 µM'),
  ('COc1cccc2c1cc1c3c(cc4c(c32)OCO4)C(=O)N1 [ARISTOLACTAM I]', '1.2 µM'),
  ('O=C1Nc2cc3c(O)cccc3c3c4c(cc1c23)OCO4', '0.035 µM'),
  ('O=C(O)c1cc2c(c3c1c([N+](=O)[O-])cc1c(O)cccc13)OCO2 [ARISTOLOCHIC ACID III]', '15 µM'),
  ('COC1=C[C@]23CCN(C)[C@H](Cc4ccc(OC)c(O)c42)C3=CC1=O [SALUTARIDINE]', '> 50 µM'),
  ('O=C1Nc2cc3ccccc3c3c(O)c(O)cc1c23', '> 35 µM'),
  ('O=C1Nc2cc3ccccc3c3c4c(cc1c23)OCO4 [ARISTOLACTAM II]', '15 µM'),
  ('COc1cccc2c1c(OC)c([N+](=O)[O-])c1c(C(=O)O)cc3c(c12)OCO3 [7-METHOXY ARISTOLOCHIC ACID A]', '> 20 µM'),
  ('COc1cccc2c1c(Cl)c1c3c(cc(O)c(O)c32)C(=O)N1', '10 µM'),
  ('COc1cccc2c1cc([N+](=O)[O-])c1c(C(=O)O)cc(O)c(O)c12', '> 30 µM'),
  ('COc1cc2c3c(c1O)-c1c(ccc(OC)c1OC)C[C@@H]3N(C)CC2 [CORYDINE]', '> 50 µM'),
  ('COc1cc2c(cc1OC)-c1c3c(cc4c1[C@H](C2)N(C)CC4)OCO3 [DICENTRINE]', '> 50 µM'),
  ('O=C1Nc2c(Cl)c3ccccc3c3c(O)c(O)cc1c23', '> 25 µM'),
  ('O=C(O)c1cc2c(c3c1c([N+](=O)[O-])cc1ccccc13)OCO2 [ARISTOLOCHIC ACID II]', '> 20 µM'),
  ('COc1c(O)ccc2c1cc1c3c(cc4c(c32)OCO4)C(=O)N1', '2.9 µM');

This collection of values is drawn from ChEMBL document CHEMBL1156890.
